biological target: human GCG receptor (human, UniProt P47871 26-477); assay: cell-based or functional assay
Sequence (P47871 26-477): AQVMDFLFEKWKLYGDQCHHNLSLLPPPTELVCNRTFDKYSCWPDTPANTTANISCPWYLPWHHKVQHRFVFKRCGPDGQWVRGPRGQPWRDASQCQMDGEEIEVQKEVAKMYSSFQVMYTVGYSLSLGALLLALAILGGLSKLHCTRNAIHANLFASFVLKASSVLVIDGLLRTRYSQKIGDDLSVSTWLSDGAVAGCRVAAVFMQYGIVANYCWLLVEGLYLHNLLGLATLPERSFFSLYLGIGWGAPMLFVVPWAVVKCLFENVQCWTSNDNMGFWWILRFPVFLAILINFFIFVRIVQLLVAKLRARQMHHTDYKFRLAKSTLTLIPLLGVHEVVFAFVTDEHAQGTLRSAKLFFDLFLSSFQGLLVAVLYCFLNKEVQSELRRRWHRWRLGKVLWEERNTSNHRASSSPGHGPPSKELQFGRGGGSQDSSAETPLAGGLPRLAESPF
Positions of bridges follow the written chain, without caps; N, C: chain ends. Non-standard residues stand in square brackets, D forms with d. No end group written: not given here. *: point of attachment. Acetyl(2-(4-imidazolyl)) = O=C(Cc1c[nH]cn1)*; Aib = CC(C)(N)C(=O)O
readout: In vitro activity relative to native peptide (%), vs. Glucagon (cAMP EC50)

{"binder": "{Acetyl(2-(4-imidazolyl))}-[Aib]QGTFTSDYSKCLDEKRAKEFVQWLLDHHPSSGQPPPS (bridge 15-19) [trigonal agonist of SEQ ID NO: 74]", "reading-qualifier": "=", "measured": 0.9}
{"binder": "H[Aib]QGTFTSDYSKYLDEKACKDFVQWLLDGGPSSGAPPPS (bridge 16-20) [trigonal agonist of SEQ ID NO: 32]", "reading-qualifier": "=", "measured": 1.7}
{"binder": "Y[Aib]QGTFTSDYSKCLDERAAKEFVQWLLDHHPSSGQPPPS (bridge 16-20) [trigonal agonist of SEQ ID NO: 69]", "reading-qualifier": "=", "measured": 9.6}
{"binder": "{Acetyl(2-(4-imidazolyl))}-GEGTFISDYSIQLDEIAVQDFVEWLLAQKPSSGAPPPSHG [trigonal agonist of SEQ ID NO: 13]", "reading-qualifier": "<", "measured": 0.1}
{"binder": "{Acetyl(2-(4-imidazolyl))}-[Aib]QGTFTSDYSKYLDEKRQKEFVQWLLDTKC (bridge 15-19) [trigonal agonist of SEQ ID NO: 89]", "reading-qualifier": "=", "measured": 0.7}
{"binder": "{Acetyl(2-(4-imidazolyl))}-[Aib]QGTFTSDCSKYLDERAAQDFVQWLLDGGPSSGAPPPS [trigonal agonist of SEQ ID NO: 63]", "reading-qualifier": "<", "measured": 0.1}
{"binder": "{Acetyl(2-(4-imidazolyl))}-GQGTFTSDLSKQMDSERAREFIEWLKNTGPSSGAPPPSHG [trigonal agonist of SEQ ID NO: 18]", "reading-qualifier": "<", "measured": 0.1}
{"binder": "Y[Aib]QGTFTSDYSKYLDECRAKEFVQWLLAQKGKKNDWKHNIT (bridge 16-20) [trigonal agonist of SEQ ID NO: 23]", "reading-qualifier": "=", "measured": 9.3}
{"binder": "H[Aib]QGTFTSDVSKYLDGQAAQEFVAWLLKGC [trigonal agonist of SEQ ID NO: 8]", "reading-qualifier": "=", "measured": 0.1}
{"binder": "{Acetyl(2-(4-imidazolyl))}-[Aib]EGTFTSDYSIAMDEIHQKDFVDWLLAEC (bridge 15-19) [trigonal agonist of SEQ ID NO: 84]", "reading-qualifier": "<", "measured": 0.1}
{"binder": "H[Aib]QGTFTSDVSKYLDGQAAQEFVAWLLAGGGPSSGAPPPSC [trigonal agonist of SEQ ID NO: 10]", "reading-qualifier": "<", "measured": 0.1}
{"binder": "H[Aib]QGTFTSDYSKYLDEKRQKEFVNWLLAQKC (bridge 16-20) [trigonal agonist of SEQ ID NO: 34]", "reading-qualifier": "=", "measured": 0.92}
{"binder": "Y[Aib]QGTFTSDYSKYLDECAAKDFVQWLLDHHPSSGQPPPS (bridge 16-20) [trigonal agonist of SEQ ID NO: 67]", "reading-qualifier": "=", "measured": 46.2}
{"binder": "H[Aib]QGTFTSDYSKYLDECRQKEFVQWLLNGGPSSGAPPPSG (bridge 16-20) [trigonal agonist of SEQ ID NO: 37]", "reading-qualifier": "=", "measured": 6.21}
{"binder": "H[Aib]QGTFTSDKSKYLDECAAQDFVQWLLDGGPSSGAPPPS [trigonal agonist of SEQ ID NO: 41]", "reading-qualifier": "<", "measured": 0.1}
{"binder": "{Acetyl(2-(4-imidazolyl))}-[Aib]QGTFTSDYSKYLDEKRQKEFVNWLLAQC (bridge 15-19) [trigonal agonist of SEQ ID NO: 86]", "reading-qualifier": "=", "measured": 0.4}
{"binder": "H[Aib]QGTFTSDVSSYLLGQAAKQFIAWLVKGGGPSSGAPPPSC [trigonal agonist of SEQ ID NO: 3]", "reading-qualifier": "<", "measured": 0.1}
{"binder": "H[Aib]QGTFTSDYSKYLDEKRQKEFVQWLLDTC (bridge 16-20) [trigonal agonist of SEQ ID NO: 52]", "reading-qualifier": "=", "measured": 7.5}
{"binder": "{Acetyl(2-(4-imidazolyl))}-[Aib]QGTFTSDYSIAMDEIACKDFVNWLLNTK (bridge 15-19) [trigonal agonist of SEQ ID NO: 61]", "reading-qualifier": "<", "measured": 0.1}
